Each entry below carries its recorded z-score.
assay: MM1S cell viability effects, profiling panel, calcein-AM fluorescence, 48 h, basal (AID 1165); conditions: higher = more signal;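 further: viability of MM1S multiple myeloma cells under basal unstimulated conditions; test concentration not given here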

compound	z-score
CCOC(=O)C[C@H]1[C@H](OC(=O)c2ccc(C(=O)c3ccccc3)cc2)[C@@H](NC(=O)c2ccccc2)c2cc(OCCCO)ccc2N1C(=O)c1ccc2ccccc2n1	0.294
COC(=O)[C@@]1(Cc2ccc(OC)cc2)[C@H]2c3cc(C(=O)N4CCCC4)n(CCN4CNCC4=O)c3C[C@H]2CN1C(=O)c1ccccc1	-0.105
COc1ccc(CCNC(=O)[C@@]2(Sc3ccc(C)cc3)CC(=O)N(C3Cc4ccccc4C3)[C@@H]2c2ccc(CO)cc2I)cc1	-2.56
OCCCC1=CC(c2cccs2)N(Cc2cc3c(cc2Br)OCO3)CC1 (stereo unspecified)	-1.44
COC(=O)C(CC#Cc1ccc2c(c1)[C@]1(C(=O)N2)[C@H](c2ccc(OCCO)cc2)N2[C@H](c3ccccc3)[C@H](c3ccccc3)OC(=O)[C@H]2[C@@H]1C(=O)Nc1nc2ccccc2s1)C(=O)OC	-2.56

Query compound follows.
What value of z-score has been recorded for this entry: CCOC(=O)C[C@H]1[C@H](OC(=O)c2ccc(C(=O)c3ccccc3)cc2)[C@@H](NC(=O)c2ccc3ccccc3n2)c2cc(OCCCO)ccc2N1C(=O)c1ccccc1 -0.67

----------
assay: binders of probe aFGF10 on microarray, primary screen, stem cell growth factor project, biochemical, small-molecule microarray, fluorescence 635/667 (AID 1071); settings: higher = more signal;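 further: score merges 667 nm spot intensity and signal to noise from triplicate slides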
Listing of entries alongside the reported composite z-score.

Below are worked cases with known answers.
> print(dat)
                                   molecule  endpoint.result
1  CCCC[C@H]1OB(O)C[C@H]2C1=C(COC)C[C@H]1C(=O)N(C)C(=O)[C@H]12             0.18
2  O=C1N[C@@H](Cc2ccccc2)C(=O)N2[C@@H]1C[C@@H](C(=O)O)[C@H]2c1cccc(OCCO)c1            0.801
3  COC(=O)[C@]1(CCC(=O)OC(C)(C)C)N=C(c2ccc(OCCCO)cc2)O[C@@H]1c1ccccc1CN=[N+]=[N-]           0.0301

Give the measured composite z-score of C=CC[C@@]1(C(=O)NCCN2CCOCC2)N=C(c2ccc(OCCCO)cc2)O[C@@H]1c1ccccc1N=[N+]=[N-] . 0.686

Can you share its composite z-score? I mean this molecule: COCCCNC(=O)[C@]1(CCC(=O)OC(C)(C)C)N=C(c2ccc(OCCCO)cc2)O[C@@H]1c1ccccc1CN=[N+]=[N-] 1.27

----------
target: Homeobox protein Hox-A13 (Mus musculus) (UniProt Q62424); experiment: inhibitors of HoxA13-DNA binding, primary screen, biochemical, fluorescence polarization, labeled oligonucleotide (AID 1185); settings: 15 min, higher = more signal, called active from +8 up or from −8 down
Sequence (Q62424 whole entry, looked up): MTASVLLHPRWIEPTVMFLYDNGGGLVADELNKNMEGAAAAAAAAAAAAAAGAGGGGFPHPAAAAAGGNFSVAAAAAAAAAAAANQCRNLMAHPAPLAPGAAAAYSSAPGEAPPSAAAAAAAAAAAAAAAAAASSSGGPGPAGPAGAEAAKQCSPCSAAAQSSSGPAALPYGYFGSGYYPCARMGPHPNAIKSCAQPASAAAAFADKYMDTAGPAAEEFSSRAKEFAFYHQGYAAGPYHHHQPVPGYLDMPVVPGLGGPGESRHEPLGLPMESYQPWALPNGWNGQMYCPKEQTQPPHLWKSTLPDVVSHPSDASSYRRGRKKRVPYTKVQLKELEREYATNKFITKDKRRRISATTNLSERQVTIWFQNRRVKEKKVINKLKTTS
Lab note: compare z-score against -3. Equal or greater, write 1 (yes). Smaller, write 0 (no).

Worked examples, 8 compounds total:
compound	group
CC(C)c1ccc(NN2C(C(O)c3ccc(B(O)O)cc3)C=CC3C(=O)N(c4ccccc4)C(=O)C32)cc1 (centres undefined)	0 (no)
O=C1O[C@H](c2ccccc2)[C@H](c2ccccc2)N2[C@H]1[C@@H](C(=O)N1CCCCCCC1)[C@]1(C(=O)Nc3ccc(C#CC4=CCCCC4)cc31)[C@H]2c1ccc(OCCO)cc1	0 (no)
C=CCC(OC(C)=O)[C@@H]1[C@@H](N(Cc2ccc(-c3ccccc3)cc2)C(=O)c2ccc(-c3ccccc3)cc2)c2cc(OCCCO)ccc2N1C(=O)Cc1ccc2ccccc2c1 (some centres undefined)	1 (yes)
NCCCCCCNC(=O)[C@@H]1C[C@@H]2C(=O)NCC(=O)N2[C@@H]1c1ccc(O)cc1	1 (yes)
[N-]=[N+]=NCc1ccccc1C[C@]1(C(N)=O)COC(c2ccc(OCCCO)cc2)=N1	0 (no)
CC(C)N1C(=O)c2ccccc2[C@](C)(C(=O)NCCN2CCOCC2)[C@@H]1c1ccc(CO)cc1	0 (no)
Cc1ccc(S[C@]2(C(=O)NCCCN(C)C)CC(=O)N(Cc3ccccc3C(F)(F)F)[C@@H]2c2ccc(CO)cc2)cc1	1 (yes)
COCCOC(=O)N1C(=O)[C@@]2(c3cc(C#CCNC(N)=O)ccc31)[C@H](C(=O)N1CCN(c3ncccn3)CC1)[C@H]1C(=O)O[C@H](c3ccccc3)[C@H](c3ccccc3)N1[C@@H]2c1ccc(OCCO)cc1	1 (yes)

# input for lookup
Determine whether this compound has z-score no lower than -3: CC(C)=CCN[C@H](CO)c1ccccc1 1 (yes)
